This listing pairs compounds with measured normalized growth.
# PROTOCOL DESCRIPTION: chemical genetic growth profiling, strain panel (AID 1159580);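 note: tested at 20 µM; growth read once vehicle control cultures reached saturation at 30 °C; 1 = growth at the plate median or of vehicle wells; lower values mean less growth of the strain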
# EXPERIMENTAL SETUP: S. cerevisiae deletion strains, growth OD, locus YGL227W, strain vid30, active compounds read low
Screen size: about 5,500 compounds; about 2,000 (36%) were called active. About 18% were inconclusive and are not listed. This is one part of the list.
OUTCOME MEASURE: normalized growth

OC[C@H]1O[C@@H](O[C@H]2[C@H](O)[C@@H](O)[C@@H](O)O[C@@H]2CO)[C@H](O)[C@@H](O)[C@@H]1O
1 (inactive)
CC(=O)O[C@H]1CC[C@@]2(C)C(=CC(=O)C3C4CCC(C(C)CCCC(C)C)[C@@]4(C)CCC32)C1 (stereo partly drawn)
0.984 (inactive)
O=C(O)c1ccc(S(=O)(=O)N(Cl)Cl)cc1
0.996 (inactive)
